- SUBJECT_OF_TEST: human recombinant histamine H2 receptor (Homo sapiens)
- Construct: expressed in transfected cells; host or cells: CHO-K1 cells
- Sequence (P25021 whole entry): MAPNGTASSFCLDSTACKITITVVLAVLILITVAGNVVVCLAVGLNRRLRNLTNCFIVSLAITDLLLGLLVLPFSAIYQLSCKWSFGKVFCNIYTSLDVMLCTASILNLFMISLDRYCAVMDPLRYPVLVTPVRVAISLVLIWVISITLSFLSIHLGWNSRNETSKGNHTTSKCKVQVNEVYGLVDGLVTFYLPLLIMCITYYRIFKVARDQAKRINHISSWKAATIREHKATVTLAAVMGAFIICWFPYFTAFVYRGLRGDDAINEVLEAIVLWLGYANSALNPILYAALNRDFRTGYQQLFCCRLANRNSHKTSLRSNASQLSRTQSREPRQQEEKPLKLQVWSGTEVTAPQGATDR
- EXPERIMENTAL_DETAILS: Histamine H2 radioligand binding ([125I]aminopotentidine)
- CONDITION_DESCRIPTION: compound at 1 μM; CHO K1 cells; read-out: Histamine Binding (1 μM) H2, percent inhibition of specific binding
OBSERVED_PROPERTY: inhibition at 1 µM (%)

>>> print(df.to_string())
                                   molecule                           subject_of_test   observed_property  quantitative_result
0  CCNC(=O)CCn1c2c(c3cc(C)ccc31)CN(C)CC2 [Compound 2]  human recombinant histamine H2 receptor (Homo sapiens)  inhibition at 1 µM                    5
1  CN1CCc2c(c3cc(Cl)ccc3n2CC(=O)NC2CCCC2)C1 [Compound 27]  human recombinant histamine H2 receptor (Homo sapiens)  inhibition at 1 µM                    5
2  Cc1ccc2c(c1)c1c(n2CCNC(=O)OCC(Cl)(Cl)Cl)CCN(C)C1 [Compound 8]  human recombinant histamine H2 receptor (Homo sapiens)  inhibition at 1 µM                   74
3      CN1CCc2c(c3cc(Cl)ccc3n2CCO)C1 [CD89]  human recombinant histamine H2 receptor (Homo sapiens)  inhibition at 1 µM                   14
4    Cc1ccc2c(c1)c1c(n2CCBr)CCN(C)C1 [CD91]  human recombinant histamine H2 receptor (Homo sapiens)  inhibition at 1 µM                   65
5  CCOC(=O)CCn1c2c(c3cc(Cl)ccc31)CN(C)CC2 [CD17]  human recombinant histamine H2 receptor (Homo sapiens)  inhibition at 1 µM                   46
6  Cc1ccc2c(c1)c1c(n2CC(=O)NCc2ccccc2)CCN(C)C1 [Compound 25]  human recombinant histamine H2 receptor (Homo sapiens)  inhibition at 1 µM                    9
7  Cc1ccc2c(c1)c1c(n2CCNC(=O)c2ccc(F)cc2)CCN(C)C1 [Compound 66]  human recombinant histamine H2 receptor (Homo sapiens)  inhibition at 1 µM                   49
8  CN1CCc2c(c3cc(Cl)ccc3n2CC(=O)OC(C)(C)C)C1 [Compound 12]  human recombinant histamine H2 receptor (Homo sapiens)  inhibition at 1 µM                   40
9  Cc1ccc2c(c1)c1c(n2CCNC(=O)C2CCCCC2)CCN(C)C1 [Compound 62]  human recombinant histamine H2 receptor (Homo sapiens)  inhibition at 1 µM                   39

---

- SUBJECT_OF_TEST: human recombinant adrenergic α2A receptor (Homo sapiens)
- Construct: expressed in transfected cells; host or cells: insect Sf9 cells
- Sequence (P08913 1-465): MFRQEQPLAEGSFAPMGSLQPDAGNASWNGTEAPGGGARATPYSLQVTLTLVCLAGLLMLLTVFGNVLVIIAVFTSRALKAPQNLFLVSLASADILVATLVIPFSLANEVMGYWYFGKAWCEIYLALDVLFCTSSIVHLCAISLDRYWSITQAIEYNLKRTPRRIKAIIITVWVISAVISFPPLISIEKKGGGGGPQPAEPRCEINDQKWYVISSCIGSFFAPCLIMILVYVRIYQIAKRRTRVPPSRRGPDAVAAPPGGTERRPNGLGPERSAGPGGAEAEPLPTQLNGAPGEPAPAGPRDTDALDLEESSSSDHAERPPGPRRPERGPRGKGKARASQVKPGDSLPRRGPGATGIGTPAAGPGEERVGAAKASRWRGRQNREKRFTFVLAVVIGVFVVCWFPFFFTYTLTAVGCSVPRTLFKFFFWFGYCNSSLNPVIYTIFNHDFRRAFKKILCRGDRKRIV
- EXPERIMENTAL_DETAILS: Adrenergic α2A radioligand binding ([3H]MK-912)
- CONDITION_DESCRIPTION: compound at 1 μM; insect Sf9 cells; read-out: Adrenergic (1 μM) α2A, percent inhibition of specific binding
OBSERVED_PROPERTY: inhibition at 1 µM (%)

>>> print(df.to_string())
                                   compound  quantitative_result
0  Cc1ccc2c(c1)c1c(n2CCC(=O)NC(C)(C)C)CCN(C)C1 [Compound 28]                   44
1  Cc1ccc2c(c1)c1c(n2CCNC(=O)C2CCCC2)CCN(C)C1 [Compound 68]                   62
2  CN1CCc2c(c3cc(Cl)ccc3n2CC(N)=O)C1 [Compound 45]                   16
3   Cc1ccc2c(c1)c1c(n2CCC#N)CCN(C)C1 [CD92]                   76
